Provide the reported cytotoxicity at 70.5 h of each item.
Test: Human HepG2 cell viability assay in 384 well format
Type: toxicity, cell-based
Design: dose 125 nL, time 70.5 hour; concentration not given beside the values
Conditions: HepG2 cells, read-out: Inhibition
Give bare numbers, in %.

Example compounds with recorded cytotoxicity at 70.5 h:
>>> numeric_result("CCc1c(C(=O)O)nnn1-c1cc(C)ccc1C")
-2.96
>>> numeric_result("CS(=O)(=O)N1CC[C@H]2OCC[C@@]2(C(=O)NCCc2ccccn2)C1")
-7.11
>>> numeric_result("O=C(c1cc(C2CC2)on1)N1CCC(Oc2ncccc2Br)CC1")
-13.4
>>> numeric_result("CC(C)(C)n1ncc2c1NC(=O)CC2c1ccc(OCC(N)=O)cc1 (stereo unspecified)")
-10.7
>>> numeric_result("CS(=O)(=O)CCSCc1cccc2cccnc12")
-4.91
>>> numeric_result("CNC(=O)[C@H]1C[C@H]2OCC[C@H]2N(Cc2ccc(F)cc2)C1")
-4.52
>>> numeric_result("Cc1cccc2nc(CSCC(=O)Nc3nnc(C(C)C)s3)cc(=O)n12")
-10.6
>>> numeric_result("CC(=O)NCC1CCC2(CCN(c3nccc(C4CCCC4)n3)CC2)O1 (stereo unspecified)")
-7.84
>>> numeric_result("CN1CCC(c2nnc3n2CCN(S(=O)(=O)c2ccccc2)C3)CC1")
-5.15
>>> numeric_result("Cc1ccccc1N1CCN(C(=O)c2cccnc2-n2cncn2)CC1")
-6.93

Attention now shifts to the item below.
Please look up its cytotoxicity at 70.5 h: CS(=O)(=O)N1CCOCC2(CN(Cc3nccs3)CCO2)C1 (stereo unspecified)
15.5
